- TARGET_OR_SYSTEM: K-Ras G12V (Homo sapiens, UniProt P01116, G12V)
- Construct: made in house; host or cells: E. coli, e.g. BL21 (DE3)
- Sequence (P01116 1-188 isoform P01116-2 G12V): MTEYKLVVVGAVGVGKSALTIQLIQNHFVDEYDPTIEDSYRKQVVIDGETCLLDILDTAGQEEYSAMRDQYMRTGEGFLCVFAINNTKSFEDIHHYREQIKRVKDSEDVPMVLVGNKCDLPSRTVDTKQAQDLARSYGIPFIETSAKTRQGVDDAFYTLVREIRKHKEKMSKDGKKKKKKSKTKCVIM
- ASSAY_COMMENT: PPI-HTRF assay, K-Ras G12V / SOS1 interaction
- Assay type: biochemical
- CONDITION_PARAMETERS: HTRF, K-Ras G12V; read-out: PPI-HTRF-5 nM (K-Ras G12V IC50)
pIC50: −log10 of the molar value.
Provide the reported pIC50 of each item.

The following molecules each have a reported value; give each one's pIC50.
1. N#CCC1CCN2c3nc(OC[C@@]45CCCN4C[C@H](F)C5)nc4c(F)c(-c5ccc(F)c6sc(N)c(C#N)c56)c(Cl)c(c34)OCC2C1 (single isomer, unassigned) [compound 156]
2. CN1c2nc(OC[C@@]34CCCN3C[C@H](F)C4)nc3c(F)c(-c4ccc(F)c5sc(N)c(C#N)c45)c(Cl)c(c23)OC2CNCC21 (some centres unmarked) [compound 214]
3. N#Cc1c(N)sc2c(F)ccc(-c3c(Cl)c4c5c(nc(OC[C@@]67CCCN6C[C@H](F)C7)nc5c3F)N3[C@H](CO4)C[C@@H]3COC(F)F)c12 [compound 210]
4. CN1c2nc(OC[C@@]34CCCN3C[C@H](F)C4)nc3c(F)c(-c4ccc(F)c5sc(N)c(C#N)c45)c(Cl)c(c23)OCC2COCCC21 (some centres unmarked) [compound 198]

Response:
1. > 5.30
2. > 5.30
3. < 5.30
4. > 5.30
